The measured values listed here are drawn from patent US9604932B2.

# METHOD_SUMMARY: Plasma pharmacokinetics in pig (release of R-100 from R-107), LCMS
# Format: in vivo
# CONDITION_DESCRIPTION: plasma, oral, capsule per os of neat R-107 88 mg/kg, 1 hrs post dose
MEASURED_PROPERTY: concentration at 1 h (ng/mL)
Give bare numbers, in ng/mL.

Ask: Please report concentration at 1 h for the following compound: CC(=O)ON1C(C)(C)CC(CO[N+](=O)[O-])C1(C)C (stereo not shown) [R-107]
Result: 0.11

----------
# METHOD_SUMMARY: Plasma pharmacokinetics in pig (release of R-100 from R-107), LCMS
# Type: in vivo
# CONDITION_DESCRIPTION: plasma, IV R-107 diluted in 4 parts of PEG400, 18 mg/kg over 6 minutes, 0.08 hrs post dose
# Description: In the following two experiments, the pharmacokinetic of releasing R-100 from R-107, via R-105 that is the reduced form of R-100, was studied in vivo according to the protocol described herein. 100 μl aliquots plasma obtained from R-107-treated sheep or pig were thawed and 200 μl ice-cold ethanol was added to each 100 μl sample to precipitate protein. […] The concentration of R-107 was measured in this sample as was the concentration of R105. […]
MEASURED_PROPERTY: concentration at 0.08 h (ng/mL)
One number for each entry, in ng/mL.

Ask: Please report concentration at 0.08 h for the following molecule: CC(=O)ON1C(C)(C)CC(CO[N+](=O)[O-])C1(C)C (stereo not shown) [R-107]
Result: 2380
